Target: T1, human epidermal growth factor receptor (EGFR) (human, UniProt P00533 25-1210)
T1 construct: whole, on cells; also called HER-1; ErbB1
Assay: flow cytometry on A431 cells
Method: The purified, monomeric humanized antibody variants were tested for binding to human epidermal growth factor receptor (EGFR, also referred to in the literature as HER-1 or ErbB1) on the A431 human epidermal cell line, using a flow cytometry-based assay. […] Binding was determined by plotting the geometric mean fluorescence against the antibody concentrations. […]
readout: EC50 fold increase relative to ch-ICR62, I-HLA1 and I-HLA2 (fold)
# output: bare number, implied unit fold

Observe how each entry below is paired with its result.
humanized ICR62 antibody I-HLA5 / I-KC (antibody, human IgG1, V domains shown) VH: QMQLVQSGPEVKKPGTSVKVSCKASGFTFTDYYMHWVRQAPGQGLEWMGWINPNSGYSTYSPSFQGQVTISADKSISTAYLQWSSLKASDTAMYYCARLSPGGYYVMDAWGQGTTVTVSS VL: DIQMTQSPSSLSASVGDRVTITCRASQGINNYLNWYQQKPGKAPKRLIYNTNNLQTGVPSRFSGSGSGTEFTLTISSLQPEDFATYYCLQHNSFPTFGQGTKLEIKR : 2
humanized ICR62 antibody I-HLA3 / I-KC (antibody, human IgG1, V domains shown) VH: QVQLVQSGAEVKKPGASVKVSCKASGYTFTDYYMHWVRQAPGQGLEWMGWINPNSGYSTYSPSFQGQVTISADKSISTAYLQWSSLKASDTAMYYCARLSPGGYYVMDAWGQGTTVTVSS VL: DIQMTQSPSSLSASVGDRVTITCRASQGINNYLNWYQQKPGKAPKRLIYNTNNLQTGVPSRFSGSGSGTEFTLTISSLQPEDFATYYCLQHNSFPTFGQGTKLEIKR : 2
humanized ICR62 antibody I-HLA6 / I-KC (antibody, human IgG1, V domains shown) VH: QMQLVQSGPEVKKPGTSVKVSCKASGFTFTDYYMHWVRQAPGQGLEWMGWINPNSGYSTYNEKFQGQVTISADKSISTAYLQWSSLKASDTAMYYCARLSPGGYYVMDAWGQGTTVTVSS VL: DIQMTQSPSSLSASVGDRVTITCRASQGINNYLNWYQQKPGKAPKRLIYNTNNLQTGVPSRFSGSGSGTEFTLTISSLQPEDFATYYCLQHNSFPTFGQGTKLEIKR : 2

So for humanized ICR62 antibody I-HLA4 / I-KC (antibody, human IgG1, V domains shown) VH: QVQLVQSGAEVKKPGASVKVSCKASGYTFTDYYMHWVRQAPGQGLEWMGWINPNSGYSTYNEKFQGQVTISADKSISTAYLQWSSLKASDTAMYYCARLSPGGYYVMDAWGQGTTVTVSS VL: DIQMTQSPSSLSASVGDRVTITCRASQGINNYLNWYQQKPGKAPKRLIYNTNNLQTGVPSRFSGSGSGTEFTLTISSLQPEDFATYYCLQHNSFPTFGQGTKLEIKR , the logged EC50 fold increase relative to ch-ICR62, I-HLA1 and I-HLA2 turned out to be 2
